- System: rainbow trout (Oncorhynchus mykiss)
- procedure summary: Contribution of tissues to fish body burden
- Type: in vivo
- applied conditions: mean across fish, Figure 1; Q10, Q14 maximum estimates
endpoint name: % contribution to body burden, Skin (%)
Answer with a number only, understood to be in %.

The cases that follow already have their % contribution to body burden, Skin on record.
# smiles structure, measurement
rows = [
    ("CCCCCCCCCCCCN", 21),
    ("CCCCCCCCCCCCCN", 20),
    ("CCCCCCCCCN", 13),
]

Any idea what its % contribution to body burden, Skin is? The compound is `CCCCCCCCCCCCCCCCN`
11

Any idea what its % contribution to body burden, Skin is? The compound is `CCCCCCCCCCCCCN(C)C`
21

Any idea what its % contribution to body burden, Skin is? The compound is `CCCCCCCCCN(C)C`
21

* * *

Each entry below lists one item and its recorded Contribution of Mucus to the fish's body burden value.
- Test system: rainbow trout (Oncorhynchus mykiss)
- procedure summary: Contribution of tissues to fish body burden
- Type: in vivo
- applied conditions: fraction, Mean
- Text: To calculate the quantity of the test chemical in the different tissues, the amount of each tissue in the fish was estimated and multiplied by the concentration in that tissue. The test chemical quantities in the different tissues were then summed to give the body burden in each fish. […] The remaining tissue (difference between the weight of the whole fish and the weight of liver, gills, skin, and blood) was assumed to have the concentration measured in the muscle. […]

Any idea what its Contribution of Mucus to the fish's body burden is? The compound is CCCCCCCCCCCCCN [P13, tridecylamine]
0.10

* * *

- System: rainbow trout (Oncorhynchus mykiss)
- procedure summary: Contribution of tissues to fish body burden
- Assay type: in vivo
- applied conditions: fraction, Fish #5
Label T when Contribution of Liver to the fish's body burden >= 0.1; otherwise F.

# smiles structure, class
data = [
    ("CCCCCCCCCCCCCN", "T"),
    ("CCCCCCCCCCCCCN(C)C", "F"),
    ("CCCCCCCCCN", "F"),
    ("CCCCCCCCCCCCN", "T"),
    ("CCCCCCCCCCCCCCCCN", "F"),
]

From here, focus on the item given below.
Kindly determine if Contribution of Liver to the fish's body burden recorded for `CCCCCCCCCN(C)C` is above or exactly 0.1.
T

* * *

- procedure summary: Tissue concentrations in rainbow trout after 7 d exposure via water (two mixtures)
- Format: in vivo, Oncorhynchus mykiss
- applied conditions: rainbow trout (Oncorhynchus mykiss), in vivo, pH 7.5, Concentration in liver
Each entry below lists one item and its recorded concentration at 7 d value.
Answer with a number only, understood to be in ng/g.

# smiles structure, units of measure, measurement
data = [
    ("CCCCCCCCCCCCCCCCN", "ng/g", 5450),
]

// switching to the query compound
Any idea what its concentration at 7 d is? The compound is `CCCCCCCCCCCCN`
35600

* * *

Each entry below lists one item and its recorded Contribution of Gills to the fish's body burden value.
- System: rainbow trout (Oncorhynchus mykiss)
- procedure summary: Contribution of tissues to fish body burden
- Type: in vivo
- applied conditions: fraction, Fish #5
- From the text: To calculate the quantity of the test chemical in the different tissues, the amount of each tissue in the fish was estimated and multiplied by the concentration in that tissue. The test chemical quantities in the different tissues were then summed to give the body burden in each fish. […] The remaining tissue (difference between the weight of the whole fish and the weight of liver, gills, skin, and blood) was assumed to have the concentration measured in the muscle. […]
Enter a number only.

Any idea what its Contribution of Gills to the fish's body burden is? The molecule is `CCCCCCCCCN(C)C`
0.14

Any idea what its Contribution of Gills to the fish's body burden is? The molecule is `CCCCCCCCCCCCCN`
0.28
